Test: Human HepG2 cell viability assay in 384 well format
Assay type: toxicity, cell-based
Design: dose 125 nL, time 70.5 hour; concentration not given beside the values
Details: HepG2 cells, read-out: Inhibition
Exercise: state measured cytotoxicity at 70.5 h for each of the compounds provided.
Expressed in %, but write only the number.

### Prompt If you can, please state the reported cytotoxicity at 70.5 h value of "O=C(C1=CCCCC1)N1CCO[C@H]2[C@H](Oc3ccccn3)CC[C@@H]21" .
### Response -9.07

### Prompt If you can, please state the reported cytotoxicity at 70.5 h value of "C[C@@H]1CN(C(=O)c2cnc(C3CC3)nc2)CC[C@@]1(O)C1CCOCC1" .
### Response -8.12

### Prompt If you can, please state the reported cytotoxicity at 70.5 h value of COCCOCC(C)NC(=O)COc1nn(C)c2nc(C)cc(C)c12 (stereo not given) .
### Response -11

### Prompt If you can, please state the reported cytotoxicity at 70.5 h value of CC(=O)Nc1nc(CN2CCCCC2Cn2cccn2)cs1 (stereo not given) .
### Response 6.38

### Prompt If you can, please state the reported cytotoxicity at 70.5 h value of "Cn1cc(Br)cc(NC(=O)CC2CCC2)c1=O" .
### Response -6.41

### Prompt If you can, please state the reported cytotoxicity at 70.5 h value of "CC(C)(C)n1ncc2c(=O)n(CC(=O)NCCc3ccccc3)cnc21" .
### Response -13.5

### Prompt If you can, please state the reported cytotoxicity at 70.5 h value of "Cc1cc(C)nc(N2CCC(Cn3cc(C(=O)N(C)C)cn3)CC2)n1" .
### Response -3.57

### Prompt If you can, please state the reported cytotoxicity at 70.5 h value of "c1ccc(NC[C@@H]2CCC[C@@H]3CN(c4ncccn4)C[C@@H]32)nc1" .
### Response -13.7

### Prompt If you can, please state the reported cytotoxicity at 70.5 h value of CC(C)=CCCC1(C)CCC(=O)N(CCc2nc(N)cc(O)n2)C1 (stereo not given) .
### Response -6.54

### Prompt If you can, please state the reported cytotoxicity at 70.5 h value of "Cc1cc(CN2C[C@@H]3CN(C(=O)c4cccn4C)CCO[C@@H]3C2)no1" .
### Response 1.95

###

Exercise: state measured cytotoxicity at 70.5 h for each of the compounds provided.
Assay: Human HepG2 cell viability assay in 384 well format
Type: toxicity, cell-based
Design: dose 125 nL, time 70.5 hour; concentration not given beside the values
Details: HepG2 cells, read-out: Inhibition
Expressed in %, but write only the number.

### Prompt If you can, please state the reported cytotoxicity at 70.5 h value of CC(O)CN1CCN(C(=O)c2ccn(-c3ccc(F)cc3)n2)CC1 (stereo unspecified) .
### Response -3.45

### Prompt If you can, please state the reported cytotoxicity at 70.5 h value of Cc1cc(C)n(CC2CCN(CC(O)CN3CCOCC3)CC2)n1 (stereo unspecified) .
### Response -2.43

### Prompt If you can, please state the reported cytotoxicity at 70.5 h value of c1ccc(-n2cc(CNC3CCc4ncnn4C3)nn2)cc1 (stereo unspecified) .
### Response -7.65

### Prompt If you can, please state the reported cytotoxicity at 70.5 h value of Cc1noc(C)c1C(C)NC(=O)N1CCN(c2cccs2)CC1 (stereo unspecified) .
### Response 6.76

### Prompt If you can, please state the reported cytotoxicity at 70.5 h value of COc1cccc(CC(=O)NCc2cnc(C)nc2C2CCCN2C)c1 (stereo unspecified) .
### Response -6.33

### Prompt If you can, please state the reported cytotoxicity at 70.5 h value of "CCN1CCN(C2CCN(Cc3nc(CCOC)no3)CC2)C1=O" .
### Response -3.79
